Target: 5-hydroxytryptamine receptor 1A (Homo sapiens, UniProt P08908)
Sequence (P08908 whole entry): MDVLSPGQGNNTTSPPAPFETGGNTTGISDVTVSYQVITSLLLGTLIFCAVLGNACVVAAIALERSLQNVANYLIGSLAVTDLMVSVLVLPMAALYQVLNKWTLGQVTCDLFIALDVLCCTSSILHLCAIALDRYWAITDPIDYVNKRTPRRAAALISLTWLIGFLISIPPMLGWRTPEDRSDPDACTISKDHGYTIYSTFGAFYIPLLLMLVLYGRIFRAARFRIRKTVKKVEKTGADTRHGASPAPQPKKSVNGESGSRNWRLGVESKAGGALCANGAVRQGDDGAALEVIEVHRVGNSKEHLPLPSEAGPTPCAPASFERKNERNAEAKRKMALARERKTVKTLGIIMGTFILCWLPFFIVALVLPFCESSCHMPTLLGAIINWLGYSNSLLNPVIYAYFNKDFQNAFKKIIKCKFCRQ
Value Type: pKi
Just the number, please; pKi means minus log10 of the concentration in mol/L.

Which measured pKi belongs to CN(C)CCc1c[nH]c2cccc(O)c12 , tested on 5-hydroxytryptamine receptor 1A (Homo sapiens, UniProt P08908)? 6.25
